target: T1, hK1 (human tissue kallikrein 1), recombinant (human, UniProt P06870 25-262); test: SPR
T1 construct: Expressed in P. pastoris from KLK1 cDNA and purified; enzymatically active; also called KLK1; Recombinant (Pichia) Kallikrein
readout.name: pKd
pKd (log units): -log10 of the concentration in mol/L.

Recorded pKd of M0115-G12 (Fab, V domains shown) VH: EVQLLESGGGLVQPGGSLRLSCAASGFTFSPYFMEWVRQAPGKGLEWVSGISSSGGNTLYADSVKGRFTISRDNSKNTLYLQMNSLRAEDTAVYYCARDRFGNYYGSGSKLQHDAFDIWGQGTMVTVSS VL: DIQMTQSPVTLSLSPGDRATLSCRASQSVSFNLAWYQHKPGQAPRLLMFDASNRATGIPDRFSGSGSGTDFTLTIKRLEPEDFAVYYCQQYGTSPFTFGPGTNVDVKR , please.
8.24

// next record M0127-H05 (Fab, V domains shown) VH: EVQLLESGGGLVQPGGSLRLSCAASGFTFSHYLMGWVRQAPGKGLEWVSSIWPSGGHTSYADSVKGRFTISRDNSKNTLYLQMNSLRAEDTAVYYCARHYGMDVWGQGTTVTVSS VL: DIQMTQSPSSLSASVGDRVTITCRASQSISSYLNWYQQKPGKVPKLLIYAASSLQSGVPSRFSGSGSGTDFTLTISSLQPDDFATYYCQQTFSTWTFGQGTKVEIRR
7.82

Next record, please: M0104-A12 (Fab, V domains shown) VH: EVQLLESGGGLVQPGGSLRLSCAASGFTFSHYNMGWVRQAPGKGLEWVSRIGSSGGKTAYADSVKGRFTISRDNSKNTLYLQMNSLRAEDTAVYYCAKTNYDFWSGYLPNPNPYPLDYWGQGTLVTVSS VL: DIQMTQSPSSLSASVGDRVTITCRASQSIGASLNWYQQKPQKAPKLLIYTASNLQSGVPSRFSGSGSGTDFTLTISSLLPEDFATYYCQQNYRGRTFGQGTKLEIKR
8.44

Also, M0129-B09 (Fab, V domains shown) VH: EVQLLESGGGLVQPGGSLRLSCAASGFTFSRYWMHWVRQAPGKGLEWVSSIGPSGGVTKYADSVKGRFTISRDNSKNTLYLQMNSLRAEDTAVYYCARHGSWGGMDVWGQGTTVTVSS VL: DIQMTQSPSFLSASVGDRVTITCRASQGISSYLAWYQQKPGKAPKLLIYAASTLQSGVPSRFSGSGSGTEFTLTISSLQPEDFATYYCQQLNSYPRTFGQGTKVEIKR please.
7.90

Repeat with M0138-A03 (Fab, V domains shown) VH: EVQLLESGGGLVQPGGSLRLSCAASGFTFSFYLMFWVRQAPGKGLEWVSGIYPSGGQTVYADSVKGRFTISRDNSKNTLYLQMNSLRAEDTAVYYCARAIGAGSSFWGQGTLVTVSS VL: DIQMTQSPSSVSASVGDRVTITCRASQGISSWLAWYQQKPGKAPKLLIYAASSLQSGVPSRFSGSGSGTDFTLTISSLQPEDFATYYCQQANSFPHTFGQGTKLEIKR
8.77
